# testDetails: Tissue accumulation in kidney and liver (kidney-to-liver ratio)
# Assay type: in vivo, mouse
# conditionParameters: JCK mice; single dose 30 mg/kg; seven days
quantityMeasured: Kidney-to-Liver Ratio PKD Mice

ASGMCFAFCFUFUFUMGS [Compound 4327] = 9.4

I. ASGSCMAMCMUMUMUSGS [Compound 4325]
II. ASGSCMASCMUSUMUSGS [Compound 4324]
III. ASGSCSASCSUSUSUSGS [RG4047]
In: Ordering: ascending Kidney-to-Liver Ratio PKD Mice. Return value: ordered labels per request.
Out: III, II, I

###

# testDetails: Tissue accumulation in kidney and liver (kidney-to-liver ratio)
# Assay type: in vivo, mouse
# conditionParameters: wild type mice; single dose 30 mg/kg; seven days
quantityMeasured: Kidney-to-Liver Ratio Wild Type Mice

ASGSCSASCSUSUSUSGS [RG4047] = 4.4
ASGMCFAFCFUFUFUMGS [Compound 4327] = 24.9

A. ASGSCMASCMUSUMUSGS [Compound 4324]
B. ASGSCMAMCMUMUMUSGS [Compound 4325]
In: # query: argmin of Kidney-to-Liver Ratio Wild Type Mice over A and B Your answer should be the label of the entry you select.
Out: A
